assay: Plasma and brain concentrations (PK) in healthy mice after oral dosing; assay type: in vivo, Nu/Nu mice; conditions: male, Nu/Nu, mouse, plasma, po, 30 mg/kg, bid for 3 days and once on day 4, oral; day 4
OBSERVATION_TYPE: Cmax (ng/mL)

compound="C=CCn1c(=O)c2cnc(Nc3ccc(N4CCN(C)CC4)cc3)nc2n1-c1cccc(C(C)(C)O)n1 [AZD-1775, adavosertib, reference compound]" observation_type=Cmax result_value=1260

----------
assay: Plasma and brain concentrations (PK) in healthy mice after oral dosing; assay type: in vivo, Nu/Nu mice; conditions: male, Nu/Nu, mouse, plasma, po, 30 mg/kg, bid for 3 days and once on day 4, oral; day 4; read-out: AUCInf, plasma
OBSERVATION_TYPE: AUC(0-inf)

compound="C=CCn1c(=O)c2cnc(Nc3ccc(N4CCN(C)CC4)cc3)nc2n1-c1cccc(C(C)(C)O)n1 [AZD-1775, adavosertib, reference compound]" observation_type=AUC(0-inf) result_value="1960 ng·h/mL"

----------
experiment: CSF and matching plasma concentrations in glioma patients (clinical trial Arms A and B); type: in vivo, human; settings: human, CSF, 90 mg, Arm B, 90 mg daily, Week 3 day 1 (Day 15); read-out: CSF concentration
OBSERVATION_TYPE: concentration at 15 day (nM)

smiles_repr=Cc1cc(Nc2ncc3c(n2)N(C)CN(c2c(Cl)cccc2Cl)C3=O)ccc1C1CCN(C)CC1 observation_type="concentration at 15 day" result_value=21.3

----------
assay: Plasma, brain and CSF concentrations (PK) in healthy rats after single oral dose; assay type: in vivo, Wistar Han rats; details: male, Wistar Han, rat, brain/plasma, po, 15 mg/kg, 15 mg/kg p.o. single dose; read-out: Brain to plasma ratio based on Cmax
OBSERVATION_TYPE: Kp

compound="Cc1cc(Nc2ncc3c(n2)N(C)CN(c2c(Cl)cccc2Cl)C3=O)ccc1C1CCN(C)CC1 [Compound of formula (I)]" result_value=0.52

----------
experiment: Plasma, brain and CSF concentrations (PK) in healthy rats after single oral dose; format: in vivo, Wistar Han rats; settings: male, Wistar Han, rat, CSF/unbound plasma, oral, 15 mg/kg, 15 mg/kg p.o. single dose; unbound plasma from free fraction 7.8%; read-out: CSF to unbound plasma ratio based on Cmax
OBSERVATION_TYPE: Kp

smiles_repr=Cc1cc(Nc2ncc3c(n2)N(C)CN(c2c(Cl)cccc2Cl)C3=O)ccc1C1CCN(C)CC1 result_value=0.18

----------
experiment: CSF and matching plasma concentrations in glioma patients (clinical trial Arms A and B); format: in vivo, human; settings: human, CSF, 90 mg, Arm B, 90 mg daily, Week 3 day 1 (Day 15); read-out: Raw data concentration in CSF
OBSERVATION_TYPE: concentration at 15 day (ng/mL)

smiles_repr=Cc1cc(Nc2ncc3c(n2)N(C)CN(c2c(Cl)cccc2Cl)C3=O)ccc1C1CCN(C)CC1 observation_type="concentration at 15 day" unit_descriptor=ng/mL result_value=10.9

----------
assay: Plasma and brain concentrations (PK) in healthy mice after oral dosing; type: in vivo, Nu/Nu mice; details: male, Nu/Nu, mouse, plasma, po, 30 mg/kg, qd for four days, oral; day 4; read-out: AUCInf, plasma
OBSERVATION_TYPE: AUC(0-inf) (ng·h/mL)

molecule="Cc1cc(Nc2ncc3c(n2)N(C)CN(c2c(Cl)cccc2Cl)C3=O)ccc1C1CCN(C)CC1 [Compound of formula (I)]" observation_type=AUC(0-inf) result_value=65000

----------
test: Plasma and brain concentrations (PK) in healthy mice after oral dosing; assay type: in vivo, Nu/Nu mice; conditions: male, Nu/Nu, mouse, plasma, po, 30 mg/kg, qd for four days, oral; day 4
OBSERVATION_TYPE: Cmax (ng/mL)

smiles_repr=Cc1cc(Nc2ncc3c(n2)N(C)CN(c2c(Cl)cccc2Cl)C3=O)ccc1C1CCN(C)CC1 observation_type=Cmax result_value=3940

----------
Experiment: CSF and matching plasma concentrations in glioma patients (clinical trial Arms A and B)
Assay type: in vivo, human
Conditions: human, CSF, 200 mg, Arm A, 200 mg, day 11 of cycle 1; read-out: Raw data concentration in CSF
Protocol: In the clinical trial described in Example 9, cerebrospinal fluid (CSF) stabilized with formic acid 0.5% and matching plasma samples collected on K2 EDTA were drawn from 3 patients of Arm A on day 11 of cycle 1 (i.e. 2 patients at 150 mg and 1 patient at 200 mg of Study drug) and 1 patient of Arm B on Week 3 day 1 (i.e. Day 15 after daily doses of Study drug at 90 mg). Study drug (parent, active moiety) and its active metabolite N^32-desmethyl-Study drug were measured using LC-MS/MS methods. […]
OBSERVATION_TYPE: concentration at 11 day (µg/mL)

smiles_repr=Cc1cc(Nc2ncc3c(n2)N(C)CN(c2c(Cl)cccc2Cl)C3=O)ccc1C1CCN(C)CC1 unit_descriptor=µg/mL result_value=0.0101

----------
assay: Plasma, brain and CSF concentrations (PK) in healthy rats after single oral dose; type: in vivo, Wistar Han rats; settings: male, Wistar Han, rat, CSF/unbound plasma, oral, 15 mg/kg, 15 mg/kg p.o. single dose; unbound plasma from free fraction 7.8%; read-out: CSF to unbound plasma ratio based on AUCLast
OBSERVATION_TYPE: Kp

smiles_repr=Cc1cc(Nc2ncc3c(n2)N(C)CN(c2c(Cl)cccc2Cl)C3=O)ccc1C1CCN(C)CC1 observation_type=Kp result_value=0.2

----------
assay: Plasma, brain and CSF concentrations (PK) in healthy rats after single oral dose; type: in vivo, Wistar Han rats; conditions: male, Wistar Han, rat, brain/plasma, po, 15 mg/kg, 15 mg/kg p.o. single dose; read-out: Brain to plasma ratio based on AUCLast
OBSERVATION_TYPE: Kp

compound="Cc1cc(Nc2ncc3c(n2)N(C)CN(c2c(Cl)cccc2Cl)C3=O)ccc1C1CCN(C)CC1 [Compound of formula (I)]" result_value=0.6

----------
assay: Drug concentration in monkey brain and plasma after daily oral administration for 91 days; assay type: in vivo, cynomolgus monkeys; details: female, cynomolgus monkey, plasma, oral, 10 mg/kg, 10 mg/kg oral once a day for 91 days; individual animals; read-out: Plasma concentration at 24 h post last dose
OBSERVATION_TYPE: concentration at 24 h (ng/mL)

molecule="Cc1cc(Nc2ncc3c(n2)N(C)CN(c2c(Cl)cccc2Cl)C3=O)ccc1C1CCN(C)CC1 [Compound of formula (I)]" result_value=1140

----------
test: CSF and matching plasma concentrations in glioma patients (clinical trial Arms A and B); assay type: in vivo, human; conditions: human, plasma (unbound), 90 mg, Arm B, 90 mg daily, Week 3 day 1 (Day 15); read-out: Unbound plasma concentration
OBSERVATION_TYPE: concentration at 15 day (µM)

smiles_repr=Cc1cc(Nc2ncc3c(n2)N(C)CN(c2c(Cl)cccc2Cl)C3=O)ccc1C1CCN(C)CC1 observation_type="concentration at 15 day" unit_descriptor=µM result_value=0.0503

----------
assay: Plasma and brain concentrations (PK) in healthy mice after oral dosing; assay type: in vivo, Nu/Nu mice; settings: male, Nu/Nu, mouse, brain/plasma, po, 30 mg/kg, qd for four days, oral; day 4; read-out: Brain to plasma ratio based on AUCInf
OBSERVATION_TYPE: Kp

smiles_repr=Cc1cc(Nc2ncc3c(n2)N(C)CN(c2c(Cl)cccc2Cl)C3=O)ccc1C1CCN(C)CC1 result_value=0.489

----------
assay: CSF and matching plasma concentrations in glioma patients (clinical trial Arms A and B); assay type: in vivo, human; settings: human, CSF/unbound plasma, 4 patients, Arms A and B; read-out: CSF/plasma ratio
OBSERVATION_TYPE: Kp

compound="Cc1cc(Nc2ncc3c(n2)N(C)CN(c2c(Cl)cccc2Cl)C3=O)ccc1C1CCN(C)CC1 [Compound of formula (I)]" result_value="0.33 to 0.42"

----------
experiment: Plasma and brain concentrations (PK) in healthy mice after oral dosing; format: in vivo, Nu/Nu mice; settings: male, Nu/Nu, mouse, plasma, po, 30 mg/kg, single dose, oral; day 1; read-out: AUCInf, plasma
OBSERVATION_TYPE: AUC(0-inf) (ng·h/mL)

smiles_repr=Cc1cc(Nc2ncc3c(n2)N(C)CN(c2c(Cl)cccc2Cl)C3=O)ccc1C1CCN(C)CC1 result_value=85200

----------
test: CSF and matching plasma concentrations in glioma patients (clinical trial Arms A and B); assay type: in vivo, human; conditions: human, CSF / unbound plasma, 90 mg, Arm B, 90 mg daily, Week 3 day 1 (Day 15); read-out: CSF to “unbound plasma” ratio
OBSERVATION_TYPE: Kp at 15 day

compound="Cc1cc(Nc2ncc3c(n2)N(C)CN(c2c(Cl)cccc2Cl)C3=O)ccc1C1CCN(C)CC1 [Compound of formula (I)]" result_value=0.42

----------
experiment: in vivo; design: species or system cynomolgus monkeys; settings: female, cynomolgus monkey, po
OBSERVATION_TYPE: NOAEL at 91 days (mg/kg)

smiles_repr=Cc1cc(Nc2ncc3c(n2)N(C)CN(c2c(Cl)cccc2Cl)C3=O)ccc1C1CCN(C)CC1 observation_type="NOAEL at 91 days" result_value=10
